- tested target: EeAChE (Electrophorus electricus)
- Sequence (O42275 24-633): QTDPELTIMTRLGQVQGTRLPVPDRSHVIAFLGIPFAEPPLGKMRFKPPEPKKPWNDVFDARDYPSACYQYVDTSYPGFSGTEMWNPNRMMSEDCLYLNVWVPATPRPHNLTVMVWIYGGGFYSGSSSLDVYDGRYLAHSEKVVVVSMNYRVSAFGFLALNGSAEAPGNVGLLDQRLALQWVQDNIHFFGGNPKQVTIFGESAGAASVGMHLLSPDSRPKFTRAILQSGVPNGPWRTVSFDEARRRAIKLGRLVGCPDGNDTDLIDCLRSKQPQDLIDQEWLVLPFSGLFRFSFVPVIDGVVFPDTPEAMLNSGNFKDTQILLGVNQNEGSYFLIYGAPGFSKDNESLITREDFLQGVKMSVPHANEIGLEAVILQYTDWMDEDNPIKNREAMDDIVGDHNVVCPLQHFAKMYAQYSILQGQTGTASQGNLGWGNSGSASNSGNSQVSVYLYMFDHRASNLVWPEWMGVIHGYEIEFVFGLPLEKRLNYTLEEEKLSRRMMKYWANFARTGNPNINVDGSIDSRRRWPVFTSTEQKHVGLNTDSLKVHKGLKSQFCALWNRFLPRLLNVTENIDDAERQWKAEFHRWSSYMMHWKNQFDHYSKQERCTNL
experimental readout: pIC50
Schema: pIC50 number; meaning minus log10 of the concentration expressed in molar units.

Any idea what pIC50 came out for COC(=O)C1=C(C)NC(C)=C(C(=O)OC)C1c1ccc(OCCCCCN2CCC(Cc3ccccc3)CC2)cc1 on EeAChE (Electrophorus electricus)?
5.74

====

experimental readout: pIC50
For clarity, pIC50 is expressed as the negative log10 of concentration in mol/L.

Query pIC50 on eqBuChE (Equus caballus) for COC(=O)C1=C(C)NC(C)=C(C(=O)OC)C1c1ccc(OCCCCCN2CCC(Cc3ccccc3)CC2)cc1 [3h]
5.70

So what pIC50 did CCOC(=O)C1=C(C)NC(C)=C(C(=O)OCC)C1c1ccc(OCCCCCN(CC)CC)cc1 [3c] get with eqBuChE (Equus caballus)?
5.34

Please state recorded pIC50 (tested on eqBuChE (Equus caballus)) of CCOC(=O)C1=C(C)NC(C)=C(C(=O)OCC)C1c1ccc(OCCCCCCN(CC)CC)cc1 [3k]
5.02

So what pIC50 did CCOC(=O)C1=C(C)NC(C)=C(C(=O)OCC)C1c1ccc(OCCCCCCN2CCN(C)CC2)cc1 [3m] get with eqBuChE (Equus caballus)?
5.26

So what pIC50 did CCN(CC)CCCCCCOc1ccc(C2C(C(=O)OC)=C(C)NC(C)=C2C(=O)OC)cc1 [3l] get with eqBuChE (Equus caballus)?
5.06

====

- tested target: eqBuChE (Equus caballus, UniProt P81908)
- Sequence (P81908 whole entry): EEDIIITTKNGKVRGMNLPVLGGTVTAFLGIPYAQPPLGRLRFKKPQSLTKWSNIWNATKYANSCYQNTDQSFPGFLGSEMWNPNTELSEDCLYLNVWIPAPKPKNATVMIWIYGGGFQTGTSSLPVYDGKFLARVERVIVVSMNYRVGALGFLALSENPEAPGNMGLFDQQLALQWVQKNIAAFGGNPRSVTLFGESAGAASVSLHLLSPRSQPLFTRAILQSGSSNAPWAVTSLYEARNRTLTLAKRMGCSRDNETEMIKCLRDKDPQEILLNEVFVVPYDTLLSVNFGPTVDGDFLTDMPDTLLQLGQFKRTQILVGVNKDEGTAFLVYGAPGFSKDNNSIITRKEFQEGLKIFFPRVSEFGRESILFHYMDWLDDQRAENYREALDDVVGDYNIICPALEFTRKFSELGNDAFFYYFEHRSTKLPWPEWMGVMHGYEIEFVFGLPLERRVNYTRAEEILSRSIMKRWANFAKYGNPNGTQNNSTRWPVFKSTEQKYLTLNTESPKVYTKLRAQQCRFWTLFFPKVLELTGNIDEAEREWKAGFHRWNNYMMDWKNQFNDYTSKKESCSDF
- experimental protocol: biochemical
- conditions used: read-out: BuChE % inhibition at 10 μM (no IC50 given), 10 μM
experimental readout: inhibition at 10 µM

Test system eqBuChE (Equus caballus, UniProt P81908); read-out inhibition at 10 µM; what value for CCOC(=O)C1=C(C)NC(C)=C(C(=O)OCC)C1c1ccc(OCCCCCN2CCN(C)CC2)cc1 ?
< 50%

Give inhibition at 10 µM (eqBuChE (Equus caballus, UniProt P81908)) of the following molecule: COC(=O)C1=C(C)NC(C)=C(C(=O)OC)C1c1ccc(OCCCCCCN2CCOCC2)cc1
< 50%

Requested read-out inhibition at 10 µM, target or system eqBuChE (Equus caballus, UniProt P81908), entry CCOC(=O)C1=C(C)NC(C)=C(C(=O)OCC)C1c1ccc(OCCCCCCN2CCOCC2)cc1
< 50%

Give recorded inhibition at 10 µM with eqBuChE (Equus caballus, UniProt P81908) for the following molecule: COC(=O)C1=C(C)NC(C)=C(C(=O)OC)C1c1ccc(OCCCCCCN2CCC(Cc3ccccc3)CC2)cc1
< 50%
